growth inhibition by entry:
# measurement protocol: NCI Yeast Anticancer Drug Screen. Data for the rad50 strain (AID 155);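 note: 0% = growth of vehicle-only cultures of the same strain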
# test settings: S. cerevisiae rad50 strain growth inhibition; at 5.0 µM (retest, dose inferred, filed as 0.5); hits give high values
About 79,000 compounds went through this panel and 15% of them were active in at least one assay; those are over-represented in the sample as a whole.
The figure you give is taken to be in %; do not add the unit.

Past entries and their recorded results:
Query: # return recorded growth inhibition for entry `CCS(=O)(=O)/C=C/c1ccc2ccccc2n1`
Result: -143

Query: # return recorded growth inhibition for entry `O=C(O)/C=C/c1ccc([N+](=O)[O-])o1`
Result: 12

Query: # return recorded growth inhibition for entry `COc1ccc(C(=O)Nc2ccc(O)c(=O)cc2)cc1`
Result: 2

Query: # return recorded growth inhibition for entry O=C(O)CC(CCCc1ccccc1)C(=O)O (stereo unspecified)
Result: -1

Query: # return recorded growth inhibition for entry COc1cccc2c1C(=O)c1c(O)c(COC3CC(N)C(O)C(C)O3)cc(O)c1C2=O (stereo unspecified)
Result: 14

Others:
Query: # return recorded growth inhibition for entry `S=C(N/N=C(/c1ccccc1)c1ccccn1)Nc1cccc(Cl)c1`
Result: 48

* * *

# measurement protocol: NCI Yeast Anticancer Drug Screen. Data for the mec2-1 strain (AID 157)
# test settings: S. cerevisiae mec2-1 strain, at 50.0 µM (retest, dose inferred, filed as 5.0)
This is part of a sample that, as a whole, favours compounds with a hit. Of some 79,000 tested, about 15% had one in any assay. The source made the active and inactive calls. Cut-off read from the data, not from the text of the source: active = growth inhibition above about 70%; inactive = the rest.
In this exercise, the only acceptable responses are y = active, n = inactive

Query: Call for entry COC(=O)c1ccccc1N=NN(C)CC1OC2OC(C)(C)OC2C1OC (stereo not drawn) :
Result: n

Query: Call for entry `CC[n+]1c(/C=C/c2cc(C(=O)OC)n3c2sc2ccccc23)sc2ccccc21` :
Result: y

Query: Call for entry `COc1cc(N=Nc2cccc(S(N)(=O)=O)c2)c2ccccc2c1N` :
Result: y

Query: Call for entry CC(SCc1ccccc1)C(=O)O (stereo not drawn) :
Result: n

Query: Call for entry CCCCCN(CCCCC)CC(O)c1cc2ccccc2c2ccccc12 (stereo not drawn) :
Result: y

Others:
Query: Call for entry `CCCCCCCCCCCCCCCCN(CC)CC` :
Result: y

Query: Call for entry `O=[N+]([O-])c1cc(I)c(O)c(/C=N/NS(=O)(=O)c2ccc(Cl)cc2)c1` :
Result: n

Query: Call for entry `O=S=C(c1ccccc1)N(Cc1ccccc1)Cc1ccccc1` :
Result: y

Query: Call for entry `OCc1cccc2c1Oc1ccccc1S2` :
Result: n

Query: Call for entry `CCOC(=O)c1c(C)[nH]c(C(c2ccccc2)c2[nH]c(C)c(C(=O)OCC)c2C)c1C` :
Result: n

Query: Call for entry `Nc1nc2nc(I)[nH]c2c(=O)[nH]1` :
Result: n

Query: Call for entry `COc1ccc(NC(=O)CCC(=O)CC(=O)c2ccncc2)cc1` :
Result: n

Query: Call for entry `C/C=c1/[nH]c(=O)/c(=C\c2ccccc2)[nH]c1=O` :
Result: n

Query: Call for entry O=C1Sc2sc(=S)sc2SC1c1ccccc1 (stereo not drawn) :
Result: y

Query: Call for entry CC(=O)N1c2ccccc2C2=NN=C(N(C)C)SC21 (stereo not drawn) :
Result: y

Query: Call for entry `O=C(Oc1cccc2cccnc12)c1ccccc1` :
Result: y

Query: Call for entry CCOP(=O)(C=C=C1CCC2[C@@H]3CCc4cc(OC)ccc4C3CC[C@]12C)OCC (stereo partly drawn) :
Result: y

Query: Call for entry `CCOc1c(Br)cc(Br)cc1/C=N/NS(=O)(=O)c1ccc(C)cc1` :
Result: y

Query: Call for entry O=S(=O)(c1ccc(OCC(O)COc2ccc(S(=O)(=O)c3ccc(OCC4CO4)cc3)cc2)cc1)c1ccc(OCC2CO2)cc1 (stereo not drawn) :
Result: n

Query: Call for entry `CSc1nc(SC)c2cnn(Cc3ccccc3)c2n1` :
Result: n
